B1: glmS ribozyme (parent)
chain: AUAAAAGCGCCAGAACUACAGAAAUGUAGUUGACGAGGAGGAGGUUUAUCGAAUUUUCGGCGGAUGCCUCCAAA

- Variants of: B1
- protocol-notes: self-cleavage kobs at 160 uM GlcN6P; higher = faster cleavage; RNA array
- condition-summary: with glucosamine-6-phosphate
Variants at the floor of the assay were thinned out.
Consider the following variants; for each one, report its self-cleavage kobs at 160 uM GlcN6P.
Answers are plain numbers, in s⁻¹.

AUAAAAGCGCCAGAACUACAGAAAUGUAGUUGACGAGGAGGAGGUUAAUCGAAUUUUCGGCGGAUGUCUCCAAA [U47A C67U]	0.000428
AUAAAAGCGCCAGAACUACAGAAAUGUAGUUGACGAGGAGGAGGUUUAUCGGAUUUUCGGCGGAUGCCUCAAAA [A52G C71A]	3.52e-05
AUAAAAGCGCCAGAAUUACAGAAAUGUAGUUGACGAGGAGGAGGUUUAUCGAGUUUUCGGCGGAUGCCUCCAAA [C16U A53G]	0.00153
AUAAAAGCGCCCGAACUACAGAAAUGUAGUUGACGAGGAGGAGGUAUAUCGAAUUUUCGGCGGAUGCCUCCAAA [A12C U46A]	0.000101
AUAAAAGCGCCAGAACUACAGAAAUGUACUUGACGAGGAGGAGGUUUAUCGAAUUUUCGGCGGAUGCCUUCAAA [G29C C70U]	0.000143

Field: self-cleavage kobs at 160 uM GlcN6P. Fill in for each record below.
1. AUAAAAGCGCCUGAACUACAGAAAUGUAGUUGACGAGGAGGAGGUUUUUCGAAUUUUCGGCGGAUGCCUCCAAA [A12U A48U]
2. AUAAAAGCGCCAGAACUACAGAAAUGUAGUUGACGAGGAGGGGGUUUAUCGAAUUUUCGGCGGAUGCCUCUAAA [A42G C71U]
3. AUAAAAGCGCUAGAACUACAGAAAUGUAGUAGACGAGGAGGAGGUUUAUCGAAUUUUCGGCGGAUGCCUCCAAA [C11U U31A]
4. AUAAAAGCGCCAGAGCUACAGAAAUGUAGUUGACGAGGAGAAGGUUUAUCGAAUUUUCGGCGGAUGCCUCCAAA [A15G G41A]
5. AUAAAAGCGCCAGAACUACAGAAAUGUAGUUGACGAGGAGUAGGUUUAUCGAAUUUUCGGCGGGUGCCUCCAAA [G41U A64G]
6. AUAAAAGCGCCAGAACUACAAAAAUGUAGUUGACGAGGAGGAGGUUUAUCGAAUUUUCGGCGGAUGCCUCCAAA [G21A]

## Output
["7.62e-05", 0.00294, "9.69e-05", 0.000239, "3.5e-05", 0.00268]
